Biological target: T1, canine OX40L, full length membrane form, expressed on HEK293 cells (canine)
T1 construct: also called OX40L expressing HEK; HEK OX40L cells
T1 chain: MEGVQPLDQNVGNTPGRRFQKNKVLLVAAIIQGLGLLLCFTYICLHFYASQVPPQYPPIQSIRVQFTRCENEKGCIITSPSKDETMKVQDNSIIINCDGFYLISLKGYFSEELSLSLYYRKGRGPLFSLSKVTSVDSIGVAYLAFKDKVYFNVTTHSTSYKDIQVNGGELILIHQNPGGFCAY
Experiment: flow cytometry
Kindly state GEO mean OX40L expressing HEK for each of the entries shown.
One number for each entry.

Examples with answers:
INPUT: Requested field: GEO mean OX40L expressing HEK. Item: PMX105 (antibody, V domains shown) VH: EVQLVESGGDLVKPGGSLRLSCVASGFTFNTYHMNWVRQAPGKGLHWVAFINSGGSGTSYEDTVQGRFTISRDYAKNTLYLQMNSLRAEDTAVYYCACGSIWTHFDYWGQGTLVTVSS VL: SYVLTQLPSVSVTLRQTAHITCGGDIIGSKSVYWYQQKLGQAPVMIIYRDNNRPTGIPERFSGASSGNTATLTISGSLAEDEADYYCQVWDSRTQALFGGGTHLTVL
OUTPUT: 584000

INPUT: Look up GEO mean OX40L expressing HEK: PMX032 (antibody, V domains shown, also called PMX32) VH: EVQLVESGGDLVKPGGSLRLSCVASGFTFSSYHMSWVRQAPGKGLQWVAYITSGGRTTSYADAVKGRFIISRDNAKNTLYLQMNSLRAEDTAVYYCASDLVLILGGADYWGQGTLVTVSS VL: SYELTQPPSVNVTLRETAHITCGGDSIGRKYVQWIQQNPGQAPVVIIYKDNNRPTGIPERFSGANSGNTATLTISGALAEDEADYYCQVGDSGSKAVFGGGTHLTVL
OUTPUT: 1.45e+06

INPUT: May I ask what GEO mean OX40L expressing HEK has been recorded for PMX057 (antibody, V domains shown, also called PMX57) VH: EVQLVESGGDLVKPEGSLRLSCVVSGFTFNNYGMSWVRQAPGKGLQWVAYISIDGRSTSYTDAVKGRFTISRDNAKNTLYLHINSLRTEDTAVYYCTKLGRGFTFGYWGQGTLVTVSS VL: SYVLTQLPSKNVTLKQPAHITCGGDNIGSKSVHWYQQKLGQAPALIIYYDSSRPTGIPERFSGANSGNTATLTISGALAEDEADYYCQVWDSSVSVFGGGTHLTVL ?
OUTPUT: 3.32e+06

INPUT: GET /values?readout=GEO mean OX40L expressing HEK&item= PMX065 (antibody, V domains shown, also called PMX65) VH: EVQLVESGGDLVKPGGSLRLSCVASGFTFNNYEMYWVRQAPGKGLEWVARIYESGSTTFSAEAVTGRFTISRDNAKNMVYLQMNSLRAEDTAVYYCASASSSSWRFDYWGQGTLVTVSS VL: SYVLTQLPSVSVTLGQTARITCGGDSIGRKNVCWFQQRLGQAPELIIYDDRSRPSGIPERFSGANSGNTATLTISGALAEDEADYYCQVWDSSTGVFGGGTHLTVL
OUTPUT: 3.55e+06

Next:
INPUT: Given PMX111 (antibody, V domains shown) VH: EVQLVESGGDLVRPGGSLRLSCVASGFTFSSYHMNWVRQAPGKGLQWVAFINSGASSATYADVVRGRFTISRDYAKNTLYLQMNSLRAEDTAVYYCASGSIWTHFDFWGQGTLVTVSS VL: SFVLTQLPSVSVTLRQTARITCGGDSVGSKSVYWYQQKLGQAPVLIIYRDSNRPTGIPERFSGASSGNTATLTISGALAEDEADYYCQVWDNSNKAMFGGGTHLTVL , state its recorded GEO mean OX40L expressing HEK.
OUTPUT: 647000
